Collected from the literature: IC50 of various compounds toward MALT1 (Homo sapiens, UniProt Q9UDY8).

query: // Input: COc1ncc(NC(=O)Nc2cnc3sc(C)nc3c2C2CC2)cc1C(F)(F)F . Output its IC50 only.
result: 101 to 500 nM

query: // Input: O=C(Nc1cnc(-n2nccn2)c(Cl)c1)c1nn(C(F)F)c(-c2ccccc2)c1C(F)(F)F . Output its IC50 only.
result: < 500 nM

query: // Input: Cn1nc(-c2cccc3[nH]ccc23)c(C(F)(F)F)c1C(=O)Nc1ccnc(C(F)(F)F)c1 . Output its IC50 only.
result: 500 to 2500 nM

query: // Input: CC(=O)N1CC(C(=O)N(C)[C@@H](c2ccc(Nc3cnn(-c4ccccn4)c3C(F)(F)F)cc2)C(F)(F)F)C1 . Output its IC50 only.
result: < 100 nM

query: // Input: Cn1nc(-c2nccc3ccsc23)c(C(F)(F)F)c1C(=O)Nc1ccnc(C(F)(F)F)c1 . Output its IC50 only.
result: 500 to 2500 nM

query: // Input: O=C(Nc1ccnc(C(F)(F)F)c1)c1snc(-c2ccccc2Cl)c1C1CC1 . Output its IC50 only.
result: ≤ 400 nM

query: // Input: Cn1cc(-c2nsc(C(=O)Nc3cnc(-n4nccn4)c(C#N)c3)c2C(F)(F)F)ccc1=O . Output its IC50 only.
result: ≤ 400 nM

* * *

Collected from the literature: IC50 of various molecules toward MALT1 (Homo sapiens, UniProt Q9UDY8).

query: // Input: Cn1nc(-c2cn(C)c3c(=O)[nH]ccc23)c(C(F)(F)F)c1C(=O)Nc1ccnc(C(F)(F)F)c1 . Output its IC50 only.
result: 2500 to 10000 nM

query: // Input: N#Cc1cc(NC(=O)c2snc(-c3cccc4ncccc34)c2C2CC2)cnc1-n1nccn1 . Output its IC50 only.
result: ≤ 400 nM

query: // Input: CN(C(=O)C1CCS(=O)(=O)CC1)[C@@H](c1ccc(Nc2cnn(-c3ccccn3)c2C(F)(F)F)cc1)C(F)(F)F . Output its IC50 only.
result: < 100 nM

query: // Input: O=C(Nc1ccnc(C(F)(F)F)c1)c1snc(-c2cccnc2)c1C1CC1 . Output its IC50 only.
result: ≤ 400 nM

query: // Input: COCC(C)n1ncc(Nc2ccc([C@H](N(C)C(=O)C3CCS(=O)(=O)CC3)C(F)(F)F)cc2)c1C(F)(F)F (stereo partly shown) . Output its IC50 only.
result: > 1000 nM

query: // Input: Cc1nc2cccc(-c3nn(C)c(C(=O)Nc4ccnc(C(F)(F)F)c4)c3C(F)(F)F)c2s1 . Output its IC50 only.
result: > 10000 nM

query: // Input: Cc1nc2c(N3CCC(C)CC3)c(NC(=O)Nc3cnc(-n4nccn4)c(Cl)c3)cnc2s1 . Output its IC50 only.
result: 51 to 100 nM

* * *

pIC50: −log10 of the molar value.
Collected from the literature: pIC50 of various compounds toward MALT1 (Homo sapiens).

query: Give the observed pIC50 of Cn1cccc(-c2nsc(C(=O)Nc3cnc(-n4nccn4)c(C#N)c3)c2C(F)(F)F)c1=O for MALT1 (Homo sapiens).
result: 5.60 to 6.00

query: Give the observed pIC50 of [2H]C([2H])([2H])n1nc(C(=O)Nc2cnc(-n3nccn3)c(Cl)c2)c(C(F)(F)F)c1-c1ccccc1 for MALT1 (Homo sapiens).
result: > 6.30

query: Give the observed pIC50 of O=C(Nc1ccnc(C(F)(F)F)c1)c1snc(-c2cccc(Cl)c2)c1C1CC1 for MALT1 (Homo sapiens).
result: ≥ 6.40

query: Give the observed pIC50 of O=C1c2c(C(F)(F)F)c(-c3ccccc3)nn2CCCN1c1ccnc(C(F)(F)F)c1 for MALT1 (Homo sapiens).
result: < 5.00

query: Give the observed pIC50 of CC(=O)N1CCC(c2nsc(C(=O)Nc3cnc(-n4nccn4)c(C#N)c3)c2C2CC2)CC1 for MALT1 (Homo sapiens).
result: 5.60 to 6.00

query: Give the observed pIC50 of COc1cncc(NC(=O)Nc2cnc(-n3nccn3)c(Cl)c2)c1C(C)OC (stereo not drawn) for MALT1 (Homo sapiens).
result: 6.77

query: Give the observed pIC50 of Cn1nc(-c2cccc3c2NCCO3)c(C(F)(F)F)c1C(=O)Nc1ccnc(C(F)(F)F)c1 for MALT1 (Homo sapiens).
result: 5.60 to 6.30

query: Give the observed pIC50 of CN1CC(c2nsc(C(=O)Nc3cnc(-n4nccn4)c(C#N)c3)c2C(F)(F)F)C1 for MALT1 (Homo sapiens).
result: < 5.60

query: Give the observed pIC50 of CO[C@@H](C)c1c(Nc2ccc([C@H](N(C)C(=O)C3CCS(=O)(=O)CC3)C(F)(F)F)cc2)cnc2nc(Cl)nn12 for MALT1 (Homo sapiens).
result: > 7.00

query: Give the observed pIC50 of O=C(Nc1ccnc(C(F)(F)F)c1)c1c(C(F)(F)F)c(-c2ccccc2)nn1C1COC1 for MALT1 (Homo sapiens).
result: < 5.00

query: Give the observed pIC50 of Cn1nc(-c2n[nH]c3cnccc23)c(C(F)(F)F)c1C(=O)Nc1ccnc(C(F)(F)F)c1 for MALT1 (Homo sapiens).
result: < 5.00

query: Give the observed pIC50 of CO[C@@H](C)c1c(Nc2ccc([C@H](N(C)C(=O)[C@H]3CC[C@H](C(=O)O)CC3)C(F)(F)F)cc2)cnn1-c1ccncc1 for MALT1 (Homo sapiens).
result: 6.00 to 7.00
